Hello, the source for this data is patent US11485751B2, in case you need it.

# MIC annotations
- Test system: clinical isolates carrying APH(3′)-VI
- assay notes: MIC broth microdilution, APH(3′)-VI
- Type: cell-based
- settings: IMM Univ. Zurich
Supply the numeric figure in µg/mL, leaving out any unit text.

{"columns": ["compound", "units text", "MIC"],
 "data": [
  ["CNC1C(OC2OC(CO)C(N)C(O)C2O)OC2CC(N)C(OC3C(N)CC(N)C(O)C3OC3OC(CN)C(OCCN)C3O)OC2C1O (centres unmarked)", "µg/mL", 2],
  ["CNC1C(OC2OC(CO)C(N)C(O)C2O)OC2CC(N)C(OC3C(N)CC(N)C(O)C3OC3OCC(O)C3O)OC2C1O (stereo not drawn) [DC146, 5-O-β-D—(Erythrofuranosyl) apramycin]", "µg/mL", 8],
  ["CNC1C(OC2OC(CO)C(N)C(O)C2O)OC2CC(N)C(OC3C(N)CC(N)C(O)C3OC3OC(CNC=O)C(OCCN)C3O)OC2C1O (centres unmarked)", "µg/mL", 2]
]}

Shifting focus to the compound that follows.
# MIC lookup, item CNC1C(OC2OC(CO)C(N)C(O)C2O)OC2CC(N)C(OC3C(N)CC(N)C(O)C3OC3OC(CO)C(OCCN)C3O)OC2C1O (centres unmarked)
4

###

- System: clinical isolates carrying AAC(3)-IV
- assay notes: MIC broth microdilution, AAC(3)-IV
- Assay type: cell-based
- settings: clinical isolates, IMM Univ. Zurich; AAC(3)-IV; read-out: MIC AAC(3)-IV
assay endpoint: MIC

Examples from the recorded data:
{"columns": ["molecule", "MIC"],
 "data": [
  ["NC[C@@H]1O[C@H](O[C@H]2[C@@H](O)[C@H](O[C@@H]3[C@@H](O)[C@H](N)C[C@H](N)[C@H]3O[C@H]3O[C@H](CO)[C@@H](O)[C@H](O)[C@H]3N)O[C@@H]2CO)[C@H](N)[C@@H](O)[C@@H]1O [paromomycin, reference compound]", "128 µg/mL"],
  ["CNC1C(O)C2O[C@H](O[C@@H]3C(N)C[C@@H](N)C(O)[C@H]3OC3O[C@H](CN)[C@@H](O)[C@H]3O)C(N)C[C@@H]2O[C@@H]1O[C@H]1OC(CO)[C@@H](N)[C@H](O)C1O (stereo partly shown) [DC201]", "16 µg/mL"],
  ["CNC1C(OC2OC(CO)C(N)C(O)C2O)OC2CC(N)C(OC3C(N)CC(N)C(OCCO)C3O)OC2C1O (stereo not shown) [DC167, 6-O-(2-Hydroxyethyl)-apramycin]", "> 32 µg/mL"],
  ["CNC1C(OC2OC(CO)C(N)C(O)C2O)OC2CC(N)C(OC3C(N)CC(N)C(O)C3OC3OC(CO)C(O)C3O)OC2C1O [DC131, 5-O—(β-D-Ribefuranosyl) apramycin]", "> 32 µg/mL"],
  ["CNC1C(OC2OC(CO)C(N)C(O)C2O)OC2CC(N)C(OC3C(N)CC(N)C(O)C3O)OC2C1O (stereo not drawn) [DC161, 5-Epi-apramycin]", "> 32 µg/mL"]
]}

# MIC lookup, item CNC1C(OC2OC(CO)C(N)C(O)C2O)OC2CC(N)C(OC3C(N)CC(N)C(O)C3OC3OC(CO)C(OCCO)C3O)OC2C1O (stereo not shown) [DC178]
> 32 µg/mL

# MIC lookup, item CNC1C(OC2OC(CO)C(N)C(O)C2O)OC2CC(N)C(OC3C(N)CC(N)C(O)C3OC3OC(CNC=O)C(OCCN)C3O)OC2C1O (stereo not shown) [DC186]
> 32 µg/mL

# MIC lookup, item CNC1C(OC2OC(CO)C(N)C(O)C2O)OC2CC(N)C(OC3CC(O)C(N)CC3N)OC2C1O (stereo not shown) [DC169, 5-Deoxy-apramycin]
> 32 µg/mL

# MIC lookup, item CNC1C(O)C2O[C@H](O[C@@H]3C(N)C[C@@H](N)C(O)[C@H]3O[C@@H]3O[C@H](CNCCN)[C@@H](O)[C@H]3O)C(N)C[C@@H]2O[C@@H]1O[C@H]1OC(CO)[C@@H](N)[C@H](O)C1O (stereo partly shown) [DC214]
8 to 16 µg/mL

# MIC lookup, item CNC1C(OC2OC(CO)C(N)C(O)C2O)OC2CC(N)C(OC3C(N)CC(N)C(O)C3OC3OC(CO)C(OCCN)C3O)OC2C1O (stereo not shown) [DC124]
> 32 µg/mL

# MIC lookup, item CNC1C(OC2OC(CO)C(N)C(O)C2O)OC2CC(N)C(OC3C(N)CC(N)C(O)C3F)OC2C1O (stereo not shown) [DC170, 5-Deoxy-5-fluoro apramycin]
> 32 µg/mL

# MIC lookup, item CNC1C(OC2OC(CO)C(N)C(O)C2O)OC2CC(N)C(OC3C(N)CC(N)C(O)C3OC3OC(CNC=O)C(O)C3O)OC2C1O (stereo not shown) [DC177]
> 32 µg/mL

# MIC lookup, item CNC1C(O[C@H]2OC(CO)[C@@H](N)C(O)C2O)O[C@H]2CC(N)[C@@H](O[C@@H]3C(N)C[C@@H](N)C(O)C3O)OC2C1O (stereo partly shown) [apramycin]
> 128 µg/mL

# MIC lookup, item CNC1C(OC2OC(CO)C(N)C(O)C2O)OC2CC(N)C(OC3C(N)CC(N)C(O)C3OC3OCC(O)C3O)OC2C1O (stereo not drawn) [DC146, 5-O-β-D—(Erythrofuranosyl) apramycin]
32 µg/mL

# MIC lookup, item CNC1C(OC2OC(CO)C(N)C(O)C2O)OC2CC(N)C(OC3C(N)CC(N)C(O)C3OC3OC(CO)C(OC4OC(CN)C(O)C(O)C4N)C3O)OC2C1O (stereo not drawn) [DC138, 5-O-β-(Paromobiosyl) apramycin]
> 32 µg/mL

# MIC lookup, item CNC1C(OC2OC(CO)C(N)C(O)C2O)OC2CC(N)C(OC3C(N)CC(N)C(O)C3OC3OC(CN)C(OCCN)C3O)OC2C1O (stereo not shown) [DC185]
> 32 µg/mL

###

# Activity A baum. AG227 APH(3′)-I armA annotations
- System: A baum. AG227 APH(3′)-I armA
- assay notes: Activity against G1405-methylated 16S-rRNA, clinical isolate AG227
- Format: cell-based

{"columns": ["compound", "test result"],
 "data": [
  ["CNC1C(OC2OC(CO)C(N)C(O)C2O)OC2CC(N)C(OC3C(N)CC(NC(=O)C(O)CCN)C(O)C3O)OC2C1O (stereo not drawn) [DC176]", 2]
]}

# Activity A baum. AG227 APH(3′)-I armA lookup, item CNC1C(O[C@H]2OC(CO)[C@@H](N)C(O)C2O)O[C@H]2CC(N)[C@@H](O[C@@H]3C(N)C[C@@H](N)C(O)C3O)OC2C1O (stereo partly drawn) [apramycin]
2

# Activity A baum. AG227 APH(3′)-I armA lookup, item CNC1C(OC2OC(CO)C(N)C(O)C2O)OC2CC(N)C(OC3C(N)CC(N)C(O)C3OC3OC(CO)C(OCCN)C3O)OC2C1O (stereo not drawn) [DC124]
16

# Activity A baum. AG227 APH(3′)-I armA lookup, item CN[C@H]1C(O)C2O[C@H](O[C@@H]3C(N)C[C@@H](NC(=O)C(O)CCN)[C@@H](O)[C@H]3O)C(N)C[C@@H]2O[C@@H]1O[C@H]1OC(CO)[C@@H](N)[C@H](O)C1O (stereo partly drawn) [DC191]
4

# Activity A baum. AG227 APH(3′)-I armA lookup, item CN[C@H]1C(O)C2O[C@H](O[C@@H]3C(N)C[C@@H](N)[C@@H](O)[C@H]3OCC(O)CN)C(N)C[C@@H]2O[C@@H]1O[C@H]1OC(CO)[C@@H](N)[C@H](O)C1O (stereo partly drawn) [DC209]
2-4

# Activity A baum. AG227 APH(3′)-I armA lookup, item CNC1C(O)C2O[C@H](O[C@@H]3C(N)C[C@@H](N)C(O)[C@H]3OC3O[C@H](CN)[C@@H](O)[C@H]3O)C(N)C[C@@H]2O[C@@H]1O[C@H]1OC(CO)[C@@H](N)[C@H](O)C1O (stereo partly drawn) [DC201]
8-16

# Activity A baum. AG227 APH(3′)-I armA lookup, item CNC1C(O)C2O[C@H](O[C@@H]3C(N)C[C@@H](N)[C@@H](O)[C@H]3OCCCO)C(N)C[C@@H]2O[C@@H]1O[C@H]1OC(CO)[C@@H](N)[C@H](O)C1O (stereo partly drawn) [DC207]
16-32

# Activity A baum. AG227 APH(3′)-I armA lookup, item CNC1C(OC2OC(CO)C(N)C(O)C2O)OC2CC(N)C(OC3C(N)CC(N)C(O)C3OC3OC(CN)C(OCCN)C3O)OC2C1O (stereo not drawn) [DC185]
2

# Activity A baum. AG227 APH(3′)-I armA lookup, item CNC1C(O)C2O[C@H](O[C@@H]3C(N)C[C@@H](N)C(O)[C@H]3O[C@@H]3O[C@H](CNCCN)[C@@H](O)[C@H]3O)C(N)C[C@@H]2O[C@@H]1O[C@H]1OC(CO)[C@@H](N)[C@H](O)C1O (stereo partly drawn) [DC214]
4-8

# Activity A baum. AG227 APH(3′)-I armA lookup, item CNC1C(O)C2O[C@H](O[C@@H]3C(N)C[C@@H](N)[C@@H](O)[C@H]3OCC(O)CO)C(N)C[C@@H]2O[C@@H]1O[C@H]1OC(CO)[C@@H](N)[C@H](O)C1O (stereo partly drawn) [DC208]
8

# Activity A baum. AG227 APH(3′)-I armA lookup, item CN[C@H]1C(O)C2O[C@H](O[C@@H]3C(N)C[C@@H](N)[C@@H](O)[C@H]3OCCCN)C(N)C[C@@H]2O[C@@H]1O[C@H]1OC(CO)[C@@H](N)[C@H](O)C1O (stereo partly drawn) [DC213]
4-8

# Activity A baum. AG227 APH(3′)-I armA lookup, item NCC[C@H](O)C(=O)N[C@@H]1C[C@H](N)[C@@H](O[C@H]2O[C@H](CN)[C@@H](O)[C@H](O)[C@H]2O)[C@H](O)[C@H]1O[C@H]1O[C@H](CO)[C@@H](O)[C@H](N)[C@H]1O [AMK, amikacin, reference compound]
>256
